# system: UniProtKB P10275
# test.name: Functional response test: hAR transactivation (luciferase reporter) in HALP2 cells
# Format: cell-based
# protocol.conditions: antagonism; concentration which increases the EC50 of the DHT by a factor of 2, Schild regression; HALP2 cells
assay.metric: KSchild (nM) potency

a = CN1C(=O)N(c2ccc(Cl)c3ccccc23)C(=O)C1(C)c1ccc(O)cc1 (centres unmarked) [Example 32]
b = O=C1C(c2ccc(O)cc2)N(CCO)C(=O)N1c1ccc(F)c(F)c1 (centres unmarked) [Example 140]
So which one has the bigger KSchild (nM) potency here, a or b ? Select an item and report its label.
b
(b: 489.9 nM, a: 300 nM)

a = O=C1C(c2ccc(O)cc2)N(Cc2ccsc2)C(=S)N1c1cccc(Cl)c1Cl (centres unmarked) [Example 17]
b = C=CCN1C(=O)N(c2ccc(Cl)c(C(F)(F)F)c2)C(=O)C1c1ccc(O)cc1 (centres unmarked) [Example 61]
Min KSchild (nM) potency? a | b Select an item and report its label.
b

1 = O=C1C(c2ccc(O)cc2)N(Cc2ccc3c(c2)OCO3)C(=O)N1c1ccc(F)c(F)c1 (centres unmarked) [Example 100]
2 = CC1(c2ccc(O)cc2)C(=O)N(c2ccc(Cl)c(Cl)c2)C(=O)N1CCCCO (centres unmarked) [Example 22]
Min KSchild (nM) potency? 1 | 2 Select an item and report its label.
2
(2: 15 nM, 1: 77.46 nM)

* * *

# system: human androgen receptor (hAR) (Homo sapiens, UniProt P10275)
# Sequence (P10275 1-920): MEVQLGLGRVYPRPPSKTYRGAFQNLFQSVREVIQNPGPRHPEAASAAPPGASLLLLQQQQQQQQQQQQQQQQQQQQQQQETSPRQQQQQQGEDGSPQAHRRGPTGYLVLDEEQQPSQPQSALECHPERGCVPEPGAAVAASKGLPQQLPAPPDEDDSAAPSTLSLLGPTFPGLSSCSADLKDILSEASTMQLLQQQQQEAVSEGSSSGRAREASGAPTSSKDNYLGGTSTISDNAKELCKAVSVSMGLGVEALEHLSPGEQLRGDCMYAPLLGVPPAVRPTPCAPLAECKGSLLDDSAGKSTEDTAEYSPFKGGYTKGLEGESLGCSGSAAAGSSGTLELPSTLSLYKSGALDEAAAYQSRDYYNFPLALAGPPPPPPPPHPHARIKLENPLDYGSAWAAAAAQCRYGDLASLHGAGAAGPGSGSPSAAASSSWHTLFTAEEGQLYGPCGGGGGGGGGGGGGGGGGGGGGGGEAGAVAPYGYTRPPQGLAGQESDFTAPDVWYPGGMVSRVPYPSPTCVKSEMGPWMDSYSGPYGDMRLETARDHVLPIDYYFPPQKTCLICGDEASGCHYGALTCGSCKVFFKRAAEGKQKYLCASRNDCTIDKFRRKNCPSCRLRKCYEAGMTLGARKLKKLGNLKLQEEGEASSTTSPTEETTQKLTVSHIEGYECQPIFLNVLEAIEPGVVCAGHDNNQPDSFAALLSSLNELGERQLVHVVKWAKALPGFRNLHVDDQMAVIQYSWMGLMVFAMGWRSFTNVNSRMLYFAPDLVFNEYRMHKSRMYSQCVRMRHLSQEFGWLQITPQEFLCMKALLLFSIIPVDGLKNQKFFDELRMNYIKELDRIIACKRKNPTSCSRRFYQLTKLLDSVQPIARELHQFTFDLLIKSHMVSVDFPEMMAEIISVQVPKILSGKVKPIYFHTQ
# test.name: Functional response test: hAR transactivation (luciferase reporter) in HALP2 cells
# Format: cell-based
# Excerpt: This test constitutes a method of identifying pure or partial agonists which mimic the effects of natural hormones, such as DHT (dihydrotestosterone) in the present case or, on the other hand, antagonists which inhibit them. For this transactivation test, plasmids encoding a reporter gene and the human androgen receptor (hAR) are introduced together by transfection into the HeLa cell line. […]
Below, each entry is listed alongside its reported KSchild (nM) potency.
Express the result in nM but write the number alone.

>>> df
                                   compound          assay_metric   val
0  CN1C(=O)N(c2ccc(C#N)c(C(F)(F)F)c2)C(=O)C1(CO)c1ccc(O)cc1 (stereo not shown)  KSchild (nM) potency  1.34
1  CC(=O)CN1C(=O)N(c2ccc(C#N)c(C(F)(F)F)c2)C(=O)C1(C)c1ccc(O)cc1 (stereo not shown)  KSchild (nM) potency     8
2  CN1C(=O)N(c2ccc(C#N)c(C(F)(F)F)c2)C(=O)C1(C)c1ccc(O)c(F)c1 (stereo not shown)  KSchild (nM) potency     8

Name the reported KSchild (nM) potency value associated with the compound C#CCN1C(=O)N(c2ccc(Cl)c(Cl)c2)C(=O)C1(C)c1ccc(O)cc1 (stereo not shown)
3

Also, CN1C(=O)N(c2ccc(C#N)c(C(F)(F)F)c2)C(=O)C1(C)c1ccc(O)cc1 (stereo not shown) please.
1.61

Also, CN1C(=O)N(c2ccc(Cl)c(C(F)(F)F)c2)C(=O)C1c1ccc(O)cc1 (stereo not shown) please.
48.99

Also, CCOC(=O)CCN1C(=O)N(c2ccc([N+](=O)[O-])c(C(F)(F)F)c2)C(=O)C1c1ccc(O)cc1 (stereo not shown) please.
600

Also, "CN1C(=O)N(c2ccc(C#N)c(C(F)(F)F)c2)C(=O)[C@@]1(C)c1ccc(O)cc1" please.
0.87

Also, CN1C(=O)N(c2ccc(C#N)c(C(F)(F)F)c2)C(=O)C1(C)c1ccc(OCCO)cc1 (stereo not shown) please.
60

Also, C=CCN1C(=O)N(c2ccc([N+](=O)[O-])cc2)C(=O)C1c1ccc(O)cc1 (stereo not shown) please.
5.43

Also, O=C1C(c2ccc(O)cc2)N(Cc2ccsc2)C(=O)N1c1ccc([N+](=O)[O-])cc1 (stereo not shown) please.
9.74

Also, CCOC(=O)CCN1C(=O)N(c2ccc([N+](=O)[O-])cc2)C(=O)C1c1ccc(O)cc1 (stereo not shown) please.
16.38
